System: intraocular pressure in rabbits
Assay: Effects of topically administered renin inhibiting compounds on intraocular pressure of rabbits
Type: in vivo, Male albino, New Zealand rabbits
Settings: topical 0.1 ml, 0.1% (w/v), 30 minutes after administration
Procedure: The antiglaucoma activity of the compounds was tested by measuring the effect on intraocular pressure in rabbits as described by Tinjum, A.M., Acta Ophthalmologica, 50, 677 (1972). Male albino, New Zealand rabbits were placed in restraining devices and the intraocular pressure was measured with an applamatic tonometer. […]
Readout kind: Mean Intraocular Pressure in mmHg (mmHg)
Numbers only, in mmHg.

C=C(C[C@H](O)[C@H](CC1CCCCC1)NC(=O)C(Cc1cnc[nH]1)NC(=O)C(Cc1ccccc1)NC(=O)OC(C)(C)C)C(=O)NCCC(C)C (stereo partly drawn) [Compound IX] :: 15.8
CCOC(=O)[C@H](C)NC(Cc1ccccc1)C(=O)NC(Cc1cnc[nH]1)C(=O)N[C@@H](CC1CCCCC1)[C@@H](O)[C@@H](O)CC(C)C (stereo partly drawn) [Compound XIV] :: 15.1
CC(C)C[C@H](O)[C@H](O)[C@H](CC1CCCCC1)NC(=O)[C@H](Cc1cnc[nH]1)NC(=O)[C@H](Cc1ccccc1)NC(=O)N1CCOCC1 [Compound I] :: 12.2
CC(C)(C)OC(=O)NC(Cc1ccccc1)C(=O)NC(Cc1cnc[nH]1)C(=O)N[C@@H](CC1CCCCC1)[C@@H](O)[C@@H](O)CN (stereo partly drawn) [Compound X] :: 15.9
CC(C)CC(=O)NCC[C@H](O)[C@H](CC1CCCCC1)NC(=O)C(Cc1cnc[nH]1)NC(=O)C(Cc1ccccc1)NC(=O)OC(C)(C)C (stereo partly drawn) [Compound VIII] :: 15.4

Now for the compound whose Mean Intraocular Pressure in mmHg we want.
Data request: Quickly give me recorded Mean Intraocular Pressure in mmHg for CC[C@@H]1C(=O)OC[C@@H]1Cc1cncn1C [Pilocarpine, reference compound]
Data returned: 11.9

# credit: patent US5059589A
